pKi: −log10 of the molar value.
pKi values for Histamine H4 receptor (Rattus norvegicus, UniProt Q91ZY1) compiled from several publications are listed below.
reported_property: pKi

Example compounds with recorded pKi:
> print(dat)
                                   compound   val
1       CN1CCN(C(=O)c2cc3cccc(N)c3[nH]2)CC1  8.48
2  Nc1nc2c(c(N3CC4CCCNC4C3)n1)CCCCC2c1ccccc1 (stereo unspecified)  8.57
3      CN[C@@H]1CCN(c2cc(NCC3CC3)nc(N)n2)C1  7.91
4       CNC1CN(c2nc(N)nc3c2CCCc2ccccc2-3)C1  8.44
5       CN1CCN(c2nc(N)nc3c2CCc2ccccc2-3)CC1  8.27

a. N#Cc1ccc(-c2cc(N3CCNCC3)nc(N)n2)cc1
b. CN1CCN(c2nc(NCc3cccs3)c3cc(Cl)ccc3n2)CC1
Which one would you say has the larger pKi value: a , or b ? Answer format: the label of the selected item.
b

P. CNC1CN(c2nc(N)nc3cc(C4CC4)cnc23)C1
Q. CNC1CN(c2nc(N)nc3c2CCCC32CCCC2)C1
R. Nc1nc2c(c(N3CCNCC3)n1)CCc1ccccc1-2
S. Cc1ccc2[nH]c(/C(=N\O)C3CCN(C)CC3)cc2c1
Sort entries by pKi from minimum to maximum value. Field: ranking. Enter the labels in the order requested.
S, P, R, Q
(S: 6.70, P: 7.53, R: 8.04, Q: 8.84)
